Biological target: IL-23 (human, p19/p40 heterodimer) (Homo sapiens, UniProt Q9NPF7;P29460 SEQ:20-189,SEQ:23-328)
Sequence (Q9NPF7 20-189, chain 1 of 2): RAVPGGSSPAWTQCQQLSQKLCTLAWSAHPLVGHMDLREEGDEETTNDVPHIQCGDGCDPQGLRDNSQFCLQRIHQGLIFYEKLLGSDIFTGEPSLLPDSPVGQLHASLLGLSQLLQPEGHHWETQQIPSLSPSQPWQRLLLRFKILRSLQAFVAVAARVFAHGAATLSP
Sequence (P29460 23-328, chain 2 of 2): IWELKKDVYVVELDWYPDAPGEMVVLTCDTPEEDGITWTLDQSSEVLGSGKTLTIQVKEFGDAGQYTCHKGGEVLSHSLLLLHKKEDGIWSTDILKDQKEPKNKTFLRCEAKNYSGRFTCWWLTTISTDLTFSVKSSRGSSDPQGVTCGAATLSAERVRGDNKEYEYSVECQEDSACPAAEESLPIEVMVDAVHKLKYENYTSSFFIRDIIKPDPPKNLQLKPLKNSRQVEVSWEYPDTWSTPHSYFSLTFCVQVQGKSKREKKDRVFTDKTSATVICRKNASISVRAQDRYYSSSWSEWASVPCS
Assay: cell_activity; Pathscan pSTAT3
Conditions: tags: R&D Systems, carrier free
pIC50: −log10 of the molar value.
Below, each entry is listed alongside its reported pIC50.
assayMetric: pIC50

[[record]]
binder = "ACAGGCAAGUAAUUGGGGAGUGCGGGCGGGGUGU (mixed, 2'-OMe C,U and G16,G17,G24,G25,G30,G31; other A,G deoxy; multiple PS; 3'-idT [2'-OMe C2,C6,U10,U13,U14,G16,G17,U21,C23,G24,G25,C27,G30,G31,U32,U34; other A,G deoxy; PS 2-3,3-4,4-5,6-7,7-8,8-9,10-11,11-12,14-15,17-18,18-19,19-20,21-22,25-26,27-28,28-29,32-33 (N = PS linkage, left out); 3'-inverted dT 35]) [ARC1626]"
experimentalresult = 7.92

[[record]]
binder = "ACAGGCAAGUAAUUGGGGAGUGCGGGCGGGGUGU (mixed, 2'-OMe C,U and most purines; PS 2-3,6-7,11-12,14-15; 3'-idT [2'-OMe C2,C6,U10,U13,U14,U21,C23,C27,U32,U34 and most purines (positions not stated); PS 2-3,6-7,11-12,14-15 (N = PS linkage, left out); 3'-inverted dT 35]) [ARC1755]"
experimentalresult = 7.17

[[record]]
binder = "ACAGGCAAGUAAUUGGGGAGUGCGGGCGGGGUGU (mixed, 2'-OMe C,U and G16,G17,G24,G25,G30,G31; other A,G deoxy; PS 6-7,7-8,8-9,10-11,11-12,14-15; 3'-idT [PS 6-7,7-8,8-9,10-11,11-12,14-15; 2'-OMe at 2,6,10,13,14,16,17,21,23,24,25,27,30,31,32,34; other A,G deoxy; 3'-inverted dT at 35]) [ARC1622]"
experimentalresult = 8.05

[[record]]
binder = "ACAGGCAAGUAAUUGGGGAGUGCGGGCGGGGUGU (mixed, 2'-OMe C,U and G16,G17,G24,G25,G30,G31; other A,G deoxy; PS 17-18,18-19,19-20,21-22; 3'-idT [2'-OMe C2,C6,U10,U13,U14,G16,G17,U21,C23,G24,G25,C27,G30,G31,U32,U34; other A,G deoxy; PS 17-18,18-19,19-20,21-22 (N = PS linkage, left out); 3'-inverted dT 35]) [ARC1623]"
experimentalresult = 8.30

[[record]]
binder = "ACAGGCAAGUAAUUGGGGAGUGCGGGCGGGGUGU (mixed, 2'-OMe C,U and G16,G17,G24,G25,G30,G31; other A,G deoxy; PS 32-33; 3'-idT [2'-OMe C2,C6,U10,U13,U14,G16,G17,U21,C23,G24,G25,C27,G30,G31,U32,U34; other A,G deoxy; PS 32-33 (N = PS linkage, left out); 3'-inverted dT 35]) [ARC1625]"
experimentalresult = 8.40

